Test system: 422866-222-R5-J1-PDC spheroids with HUVEC/MSC, viability
Test: Anticancer human tumor 422866-222-R5-J1-PDC patient-derived pancreatic adenocarcinoma cell line growth inhibition [GQUAD]
Settings: second compound 10 µM; first compound 0.00999 µM; stronger effect = lower value
Excerpt: DNA G-quadruplex Stabilizer Agents in Combinations in Complex Spheroids A high-throughput screen of multi-cell type tumor spheroids was designed to identify active combinations of DNA G-quadruplex stabilizer agents and targeted small molecules. […] Compounds. […] If the clinical Cmax for an agent had not been determined, the highest concentration tested was 10 microM. […]
Listed here are compounds together with their documented viability, T/C.
Write the number in % without appending the unit.

>  <compound>
Cc1[nH]c2ccccc2c1CCNCc1ccc(/C=C/C(=O)NO)cc1 + Cc1cnc(CNC(=O)c2c(=O)c3ccc(N4CCCN(C)CC4)nc3n3c2sc2ccccc23)cn1

>  <outcome measure>
viability, T/C

>  <observed result>
68.7

$$$$
>  <compound>
Cc1[nH]c2ccccc2c1CCNCc1ccc(/C=C/C(=O)NO)cc1 + Cc1[nH]c2ccc(F)cc2c1-c1nc2c3cccnc3c3ncccc3c2[nH]1

>  <outcome measure>
viability, T/C

>  <observed result>
64.7

$$$$
>  <compound>
CC[C@@]1(O)C(=O)OCc2c1cc1n(c2=O)Cc2cc3c(CN(C)C)c(O)ccc3nc2-1 + CN(C)c1ccc(Nc2c3ccc(NC(=O)CCN4CCCC4)cc3nc3cc(NC(=O)CCN4CCCC4)ccc23)cc1

>  <outcome measure>
viability, T/C

>  <observed result>
91.8

$$$$

Lab note: CCc1c2c(nc3ccc(O)cc13)-c1cc3c(c(=O)n1C2)COC(=O)[C@]3(O)CC + Cc1[nH]c2ccc(F)cc2c1-c1nc2c3cccnc3c3ncccc3c2[nH]1 gave viability, T/C of 44

Lab note: CCc1c2c(nc3ccc(O)cc13)-c1cc3c(c(=O)n1C2)COC(=O)[C@]3(O)CC + Cc1cnc(CNC(=O)c2c(=O)c3ccc(N4CCCN(C)CC4)nc3n3c2sc2ccccc23)cn1 gave viability, T/C of 68

Lab note: CC[C@@]1(O)C(=O)OCc2c1cc1n(c2=O)Cc2cc3c(CN(C)C)c(O)ccc3nc2-1 + Cc1[nH]c2ccc(F)cc2c1-c1nc2c3cccnc3c3ncccc3c2[nH]1 gave viability, T/C of 73.5

---

Test system: 422866-222-R5-J1-PDC spheroids with HUVEC/MSC, viability
Assay: Anticancer human tumor 422866-222-R5-J1-PDC cell line growth inhibition [GQUAD];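 further: spheroids exposed to compounds for seven days before reading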
Settings: curve of first compound; second compound 0.316 µM
Listed here are molecules together with their documented IC50.
Write the number in µM without appending the unit.

>  <molecule>
COc1cccc2c1C(=O)c1c(O)c3c(c(O)c1C2=O)CC(O)(C(=O)CO)CC3OC1CC(N)C(O)C(C)O1 (stereo not given) + CN(C)c1ccc(Nc2c3ccc(NC(=O)CCN4CCCC4)cc3nc3cc(NC(=O)CCN4CCCC4)ccc23)cc1

>  <outcome measure>
IC50

>  <unit abbreviation>
µM

>  <observed result>
0.9

$$$$
>  <molecule>
COc1cc(C2c3cc4c(cc3C(OC3OC5COC(C)OC5C(O)C3O)C3COC(=O)C23)OCO4)cc(OC)c1O (stereo not given) + CN(C)c1ccc(Nc2c3ccc(NC(=O)CCN4CCCC4)cc3nc3cc(NC(=O)CCN4CCCC4)ccc23)cc1

>  <outcome measure>
IC50

>  <unit abbreviation>
µM

>  <observed result>
3.33

$$$$
>  <molecule>
C#Cc1c(F)ccc2cc(O)cc(-c3ncc4c(N5CC6CCC(C5)N6)nc(OCC56CCCN5CC(F)C6)nc4c3F)c12 (stereo not given) + Cc1cnc(CNC(=O)c2c(=O)c3ccc(N4CCCN(C)CC4)nc3n3c2sc2ccccc23)cn1

>  <outcome measure>
IC50

>  <unit abbreviation>
µM

>  <observed result>
3.22

$$$$
>  <molecule>
Nc1ccn(C2OC(CO)C(O)C2(F)F)c(=O)n1 (stereo not given) + CN(C)c1ccc(Nc2c3ccc(NC(=O)CCN4CCCC4)cc3nc3cc(NC(=O)CCN4CCCC4)ccc23)cc1

>  <outcome measure>
IC50

>  <unit abbreviation>
µM

>  <observed result>
1.08

$$$$

Next up:
Lab note: COc1cccc2c1C(=O)c1c(O)c3c(c(O)c1C2=O)CC(O)(C(=O)CO)CC3OC1CC(N)C(O)C(C)O1 (stereo not given) + Cc1cnc(CNC(=O)c2c(=O)c3ccc(N4CCCN(C)CC4)nc3n3c2sc2ccccc23)cn1 gave IC50 of 1.18

---

System: 422866-222-R5-J1-PDC spheroids with HUVEC/MSC, viability
Assay: Anticancer human tumor 422866-222-R5-J1-PDC cell line growth inhibition [GQUAD];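 further: spheroids exposed to compounds for seven days before reading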;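 on viability, T/C: percent viability relative to DMSO vehicle control taken as 100%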
Settings: second compound 3.16 µM; first compound 1 µM; stronger effect = lower value
Listed here are compounds together with their documented viability, T/C.
Write the number in % without appending the unit.

>  <compound>
Cc1cccc(N(C)C(=O)C2C(O)CCN2c2nc(C)cc(C(F)(F)F)c2C#N)c1 (stereo unspecified) + CN(C)c1ccc(Nc2c3ccc(NC(=O)CCN4CCCC4)cc3nc3cc(NC(=O)CCN4CCCC4)ccc23)cc1

>  <outcome measure>
viability, T/C

>  <unit abbreviation>
%

>  <observed result>
85.6

$$$$

Lab note: C=CC(=O)N1CCN(c2nc(=O)n(-c3c(C)ccnc3C(C)C)c3nc(-c4c(O)cccc4F)c(F)cc23)C(C)C1 (stereo unspecified) + Cc1cnc(CNC(=O)c2c(=O)c3ccc(N4CCCN(C)CC4)nc3n3c2sc2ccccc23)cn1 gave viability, T/C of 27.9

Lab note: C=CCn1c(=O)c2cnc(Nc3ccc(N4CCN(C)CC4)cc3)nc2n1-c1cccc(C(C)(C)O)n1 + CN(C)c1ccc(Nc2c3ccc(NC(=O)CCN4CCCC4)cc3nc3cc(NC(=O)CCN4CCCC4)ccc23)cc1 gave viability, T/C of 42

---

Tested on: 422866-222-R5-J1-PDC spheroids with HUVEC/MSC, viability
Assay: Anticancer human tumor 422866-222-R5-J1-PDC cell line growth inhibition [GQUAD];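 further: spheroids exposed to compounds for seven days before reading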
Details: curve of first compound; second compound 0.316 µM
Source text: DNA G-quadruplex Stabilizer Agents in Combinations in Complex Spheroids A high-throughput screen of multi-cell type tumor spheroids was designed to identify active combinations of DNA G-quadruplex stabilizer agents and targeted small molecules. […] Compounds. […] If the clinical Cmax for an agent had not been determined, the highest concentration tested was 10 microM. […]
outcome measure: IC50 (nM)
Write the number in nM without appending the unit.

>  <compound>
O=C(NO)c1cnc(N2CCN(S(=O)(=O)c3ccc4ccccc4c3)CC2)nc1 + CN(C)c1ccc(Nc2c3ccc(NC(=O)CCN4CCCC4)cc3nc3cc(NC(=O)CCN4CCCC4)ccc23)cc1

>  <unit abbreviation>
nM

>  <IC50>
838

$$$$

Next up:
Lab note: CC[C@@]1(O)C(=O)OCc2c1cc1n(c2=O)Cc2cc3c(CN(C)C)c(O)ccc3nc2-1 + CN(C)c1ccc(Nc2c3ccc(NC(=O)CCN4CCCC4)cc3nc3cc(NC(=O)CCN4CCCC4)ccc23)cc1 gave IC50 of 89.9

---

Tested on: 422866-222-R5-J1-PDC spheroids with HUVEC/MSC, viability
Assay: Anticancer human tumor 422866-222-R5-J1-PDC cell line growth inhibition [GQUAD];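 further: spheroids exposed to compounds for seven days before reading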;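 on viability, T/C: percent viability relative to DMSO vehicle control taken as 100%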
Settings: second compound 3.16 µM; first compound 0.1 µM; stronger effect = lower value
outcome measure: viability, T/C

Solved entries (count: 3):
>  <molecule>
CC(=O)O[C@H]1C(=O)[C@@]2(C)[C@H]([C@H](OC(=O)c3ccccc3)[C@]3(O)C[C@H](OC(=O)[C@H](O)[C@@H](NC(=O)c4ccccc4)c4ccccc4)C(C)=C1C3(C)C)[C@]1(OC(C)=O)CO[C@@H]1C[C@@H]2O + Cc1[nH]c2ccc(F)cc2c1-c1nc2c3cccnc3c3ncccc3c2[nH]1

>  <viability, T/C>
75%

$$$$
>  <molecule>
COc1cc(C2c3cc4c(cc3C(OC3OC5COC(C)OC5C(O)C3O)C3COC(=O)C23)OCO4)cc(OC)c1O (centres undefined) + Cc1[nH]c2ccc(F)cc2c1-c1nc2c3cccnc3c3ncccc3c2[nH]1

>  <viability, T/C>
90.3%

$$$$
>  <molecule>
C=CC(=O)N1CCN(c2nc(=O)n(-c3c(C)ccnc3C(C)C)c3nc(-c4c(O)cccc4F)c(F)cc23)C(C)C1 (centres undefined) + CN(C)c1ccc(Nc2c3ccc(NC(=O)CCN4CCCC4)cc3nc3cc(NC(=O)CCN4CCCC4)ccc23)cc1

>  <viability, T/C>
25.5%

$$$$

Lab note: COc1cc(C2c3cc4c(cc3C(OC3OC5COC(C)OC5C(O)C3O)C3COC(=O)C23)OCO4)cc(OC)c1O (centres undefined) + Cc1cnc(CNC(=O)c2c(=O)c3ccc(N4CCCN(C)CC4)nc3n3c2sc2ccccc23)cn1 gave viability, T/C of 87.3%
